Test system: P12-Ichikawa
TEST PROTOCOL: cell viability relative to DMSO control; higher = less cytotoxic
STATED CONDITIONS: RPMI 5 mM glucose + 10% dialyzed FBS; 48 h; 5.12 µM

QUERY SMILES	cell viability (%)
c1coc(CNc2ncnc3nc[nH]c23)c1	122
Cc1nnc(C(=O)NC(C)(C)c2nc(C(=O)NCc3ccc(F)cc3)c(O)c(=O)n2C)o1	95.2
COc1cc(C[C@@H](CO)[C@H](CO)Cc2ccc(O)c(OC)c2)ccc1O	134

* * *

Test system: SEM cells
TEST PROTOCOL: cell viability relative to DMSO control; higher = less cytotoxic
STATED CONDITIONS: HPLM + 10% dialyzed FBS; 48 h; 46.1 µM
ATTRIBUTE MEASURED: cell viability (%)

COMPOUND	ATTRIBUTE MEASURED	RESULT
CC(C)(Sc1cc(C(C)(C)C)c(O)c(C(C)(C)C)c1)Sc1cc(C(C)(C)C)c(O)c(C(C)(C)C)c1	cell viability	90
N#Cc1c(N(CC(=O)[O-])CC(=O)[O-])sc(C(=O)[O-])c1CC(=O)[O-].O.O.O.O.O.O.O.[Sr+2].[Sr+2]	cell viability	87.9
O=C(O)c1cccc(-c2noc(-c3ccccc3F)n2)c1	cell viability	88.1
Cc1ccc(C(=O)Nc2ccc([S+](=O)([O-])O)c3cc([S+](=O)([O-])O)cc([S+](=O)([O-])O)c23)cc1NC(=O)c1cccc(NC(=O)Nc2cccc(C(=O)Nc3cc(C(=O)Nc4ccc([S+](=O)([O-])O)c5cc([S+](=O)([O-])O)cc([S+](=O)([O-])O)c45)ccc3C)c2)c1	cell viability	33.1
COCC(=O)NC/C=C/c1ccc2ncnc(Nc3ccc(Oc4ccc(C)nc4)c(C)c3)c2c1	cell viability	66.5
OC1=C(Cl)C=C(N\C2=C(\C(=O)NC2=O)C3=C(C=CC=C3)[N+]([O-])=O)C=C1	cell viability	6
Clc1ccc(C(Cn2ccnc2)OCc2c(Cl)cccc2Cl)c(Cl)c1 (centres undefined)	cell viability	117
COc1cc2c(cc1OC)CN(CCc1ccc(NC(=O)c3cccc4c(=O)c5cccc(OC)c5[nH]c34)cc1)CC2	cell viability	5.66
O=c1oc2cc(O)ccc2s1	cell viability	37.9

* * *

Test system: NOMO1
TEST PROTOCOL: cell viability relative to DMSO control; higher = less cytotoxic
STATED CONDITIONS: RPMI 5 mM glucose + 10% dialyzed FBS; 48 h; 0.00234 µM

COMPOUND	TESTED ON	UNIT OF MEASUREMENT	cell viability
O=C1\C=C(OC2=C(C=CC=C12)C3=CC=CC4=C3SC5=C4C=CC=C5)\N6CCOCC6	NOMO1	%	121
COc1cc2c(cc1O)CCC1C2CC[C@@]2(C)C1CC[C@@H]2O (some centres not stated)	NOMO1	%	129
Nc1ncnc2nc(-c3ccc(N4CCOCC4)nc3)cc(-c3cccc(Br)c3)c12	NOMO1	%	127
CCc1nc(N)nc(N)c1-c1ccc(Cl)cc1	NOMO1	%	94.3
Clc1ccc(C(c2ccccc2Cl)C(Cl)Cl)cc1 (configuration not stated)	NOMO1	%	115
CCC[C@H](Nc1nc(-c2ccc(NC(=O)NCC)c(OC)c2)ncc1C)c1cccnc1	NOMO1	%	120
Cc1nc(-c2ccc(-c3ccc(C(=O)N4CCc5cc6c(cc54)C4(CCN(C)CC4)CO6)cc3)c(C)c2)no1	NOMO1	%	111
O=C1c2ccccc2-c2n[nH]c3cccc1c23	NOMO1	%	107
CC1(C)CCC(C)(C)c2cc(NC(=O)c3ccc(C(=O)O)cc3)ccc21	NOMO1	%	91.9
CC[C@H](CO)Nc1nc(NCc2ccccc2)c2ncn(C(C)C)c2n1	NOMO1	%	96.3
C[C@]12CC[C@H]3[C@@H](CC[C@@]45O[C@@H]4C(O)=C(C#N)C[C@]35C)[C@@H]1CC[C@@H]2O	NOMO1	%	121
CCC(=O)N1CCN(CC1)C2=C(C=C(C=C2)N3C(=O)\C=C/C4=C3C5=CC(=CC=C5N=C4)C6=CN=C7C=CC=CC7=C6)C(F)(F)F	NOMO1	%	100
CCn1c(C(=O)N(C2CC2)C2CC2)cc2c3c(ncn3C)c(Nc3cc(C)n(C)n3)nc21	NOMO1	%	104
Cc1nnc(C(C)C)n1[C@@H]1C[C@H]2CC[C@@H](C1)N2CC[C@H](NC(=O)C1CCC(F)(F)CC1)c1ccccc1	NOMO1	%	93.2
COc1cc2c(cc1OC)CN(CCc1ccc(NC(=O)c3cccc4c(=O)c5cccc(OC)c5[nH]c34)cc1)CC2	NOMO1	%	114
CCOc1ccccc1N/N=C1/C(=O)N(c2nc(-c3ccccc3)cs2)N=C1C	NOMO1	%	106
CCC(=O)NC[C@H](Cc1ccc(OCCc2nc(-c3ccccc3)oc2C)cc1)N/C(C)=C\C(=O)c1ccc(C(F)(F)F)cc1	NOMO1	%	113
CNC(=O)c1nn(C)c2c1C(C)(C)Cc1cnc(Nc3ccc(N4CCN(C)CC4)cc3)nc1-2	NOMO1	%	102
C[C@@H]1CC[C@@]2(CC[C@]3(C)\C(=C/C[C@@H]4[C@@]5(C)C[C@@H](O)[C@H](O)[C@@](C)(CO)[C@@H]5CC[C@@]34C)[C@@H]2[C@H]1C)C(O)=O	NOMO1	%	119
COc1cc2cc(c1Cl)N(C)C(=O)C[C@H](OC(=O)C(C)C)[C@]1(C)O[C@@H]1[C@H](C)[C@@H]1C[C@@](O)(NC(=O)O1)[C@H](OC)/C=C/C=C(\C)C2	NOMO1	%	40.4
COc1c(N2C[C@@H]3CCCN[C@@H]3C2)c(F)cc2c(=O)c(C(=O)O)cn(C3CC3)c12.Cl.O	NOMO1	%	98.5
N#CC1(c2cccc(C(=O)Nc3cc(Oc4ccc5nc(NC(=O)C6CC6)sc5n4)ccc3F)c2Cl)CC1	NOMO1	%	123

* * *

System: SEM cells
TEST PROTOCOL: AUC of viability dose-response curve (% viability x log10 dose units); higher = less sensitive
STATED CONDITIONS: HPLM + 10% dialyzed FBS; 48 h

QUERY SMILES	AUC of viability dose-response curve
C[S+](=O)([O-])N1CCN(Cc2cc3nc(-c4cccc5[nH]ncc45)nc(N4CCOCC4)c3s2)CC1	356
N#Cc1c(N(CC(=O)[O-])CC(=O)[O-])sc(C(=O)[O-])c1CC(=O)[O-].O.O.O.O.O.O.O.[Sr+2].[Sr+2]	462
CC1(C)[C@H](C(=O)O)N2C(=O)C[C@H]2[S+]1(=O)[O-]	472
CN(CC(=O)N(Cc1ccc(C2CCCCC2)cc1)c1ccc(C(=O)O)c(O)c1)[S+](=O)([O-])c1c(F)c(F)c(F)c(F)c1F	432

* * *

Tested on: NOMO1
TEST PROTOCOL: cell viability relative to DMSO control; higher = less cytotoxic
STATED CONDITIONS: HPLM + 10% dialyzed FBS; 48 h; 0.00702 µM

QUERY SMILES	UNIT OF MEASUREMENT	cell viability
CC(C)CC(=O)Nc1n[nH]c2c1CN(C(=O)C1CCN(C)CC1)C2(C)C	%	113
CC[C@H](C)C(=O)O[C@H]1C[C@@H](C)\C=C2\C=C/[C@H](C)[C@H](CC[C@@H]3C[C@@H](O)CC(=O)O3)[C@@H]12	%	100
NCCOc1cc(C(=O)Nc2cc(OCCN)c3ccccc3n2)nc(C(=O)Nc2cc(OCCN)c3ccccc3n2)c1	%	43.9
COc1ccc(/C=C/C(=O)Nc2ccccc2C(=O)O)cc1OC	%	120
O=C(O)c1cccc(-c2noc(-c3ccccc3F)n2)c1	%	100
CC[C@H](CO)Nc1nc(NCc2ccccc2)c2ncn(C(C)C)c2n1	%	98.5
C[C@]12CC[C@H]3[C@@H](CC[C@@]45O[C@@H]4C(O)=C(C#N)C[C@]35C)[C@@H]1CC[C@@H]2O	%	118

* * *

System: P12-Ichikawa
TEST PROTOCOL: cell viability relative to DMSO control; higher = less cytotoxic
STATED CONDITIONS: HPLM + 10% dialyzed FBS; 48 h; 0.569 µM
Consider the following compounds and their measured cell viability readings.

QUERY SMILES	cell viability (%)
COc1cccc(N(C)C(=S)Oc2ccc3c(c2)CCCC3)n1	112
CC[C@H]1OC(=O)[C@H](C)[C@@H](O[C@H]2C[C@@](C)(OC)[C@@H](O)[C@H](C)O2)[C@H](C)[C@@H](O[C@@H]2O[C@H](C)C[C@H](N(C)C)[C@H]2O)[C@](C)(O)C[C@@H](C)/C(=N\OCOCCOC)[C@H](C)[C@@H](O)[C@]1(C)O	87.3
CC1=CC/2=C(C=C1C)N(C[C@@H](O)[C@@H](O)[C@@H](O)CO)C/3=N/C(=O)NC(=O)C3=N2	113
CC[C@H](C)C(=O)O[C@H]1C[C@@H](C)\C=C2\C=C/[C@H](C)[C@H](CC[C@@H]3C[C@@H](O)CC(=O)O3)[C@@H]12	97.1
Nc1cc(N2CCCCC2)nc(N)[n+]1[O-]	131
CCCCN1CCC(CNC(=O)c2c3n(c4ccccc24)CCCO3)CC1	116
CC[C@H](CO)Nc1nc(NCc2ccccc2)c2ncn(C(C)C)c2n1	93.1
CN(C)c1ccc(-c2nc3c(N4CCN(CC(=O)Nc5nccs5)CC4)c(Cl)cnc3[nH]2)cc1	115
Cc1cccc(-c2[nH]c(C(C)(C)C)nc2-c2ccc3nccnc3c2)n1	118
